- assay.protocol: Clearance in Sprague-Dawley rat at 1 mg/kg, IV administered for 30 mins measured after 24 hrs post dose by LC-MS/MS analysis
- Assay type: ADME, organism-based
- test.settings: in vivo, time 24.5 hrs
endpoint: clearance (mL/min/kg)
Give the value in mL/min/kg but do not write mL/min/kg after it.

Exercise: clearance lookup needed for CC(=O)[C@H]1CC[C@H]2[C@@H]3CC[C@H]4C[C@H](OC(=O)OCc5oc(=O)oc5C)CC[C@]4(C)[C@H]3CC[C@]12C , thanks.
Solution: 440

###

- assay.protocol: AUClast in beagle dog at 5 mg/kg, IM administered for 30 mins measured after 24 hrs post dose by LC-MS/MS analysis
- Type: ADME, organism-based, Canis lupus familiaris
- Set-up: dose 5 mg/kg, time 24.5 hrs, route im
- test.settings: in vivo
endpoint: AUC(0-t) at 24.5 h (ng·h/mL)
The response must be a number in ng·h/mL with no trailing unit.

Exercise: Fill blank: measured AUC(0-t) at 24.5 h of the molecule CC(=O)[C@H]1CC[C@H]2[C@@H]3CC[C@H]4C[C@H](OC(=O)OCCOC(=O)C(C)C)CC[C@]4(C)[C@H]3CC[C@]12C is ____.
Solution: 36.5

###

- assay.protocol: Half life in Sprague-Dawley rat at 1 mg/kg, IV administered for 30 mins measured after 24 hrs post dose by LC-MS/MS analysis
- Format: ADME, organism-based
- test.settings: in vivo, time 24.5 hrs
endpoint: half-life

Exercise: I am curious: what half-life value has been reported for CC(=O)[C@H]1CC[C@H]2[C@@H]3CC[C@H]4C[C@H](OC(=O)OCc5oc(=O)oc5C)CC[C@]4(C)[C@H]3CC[C@]12C ?
Solution: 17 min

###

This listing pairs compounds with measured Cmax.
- assay.protocol: Cmax in Sprague-Dawley rat at 1 mg/kg, IV administered for 30 mins measured after 24 hrs post dose by LC-MS/MS analysis
- Type: ADME, organism-based
- Design: time 24.5 hrs, dose 1 mg/kg, route iv
- test.settings: in vivo
The response must be a number in ng/mL with no trailing unit.

Exercise: Tell me the measured Cmax of CC(=O)[C@H]1CC[C@H]2[C@@H]3CC[C@H]4C[C@H](OC(=O)OCc5oc(=O)oc5C)CC[C@]4(C)[C@H]3CC[C@]12C , please.
Solution: 103

Exercise: What does the record list as Cmax for CC(=O)[C@H]1CC[C@H]2[C@@H]3CC[C@H]4C[C@H](OC(=O)OCCOC(=O)C(C)C)CC[C@]4(C)[C@H]3CC[C@]12C ?
Solution: 45.6

###

- assay.protocol: AUClast in Sprague-Dawley rat at 5 mg/kg, IM administered for 30 mins measured after 24 hrs post dose by LC-MS/MS analysis
- Type: ADME, organism-based
- Set-up: time 24.5 hrs, dose 5 mg/kg, route im
- test.settings: in vivo
endpoint: AUC(0-t) at 24.5 h (ng·h/mL)
Write it as a number; the unit ng·h/mL goes unstated.

Exercise: // AUC(0-t) at 24.5 h lookup, key: CCCCCC(=O)O[C@@H]1CC[C@@]2(C)[C@@H](CC[C@@H]3[C@@H]2CC[C@]2(C)[C@@H](C(C)=O)CC[C@@H]32)C1
Solution: 716

###

- assay.protocol: Metabolic stability in human plasma assessed as half life at 1 uM incubated for 60 min by LC-MS/MS method
- Type: ADME, cell-free
endpoint: half-life at 1 µM (h)
Answer in h, number only, no unit symbol.

The cases that follow already have their half-life at 1 µM on record.
1. CC(=O)[C@H]1CC[C@H]2[C@@H]3CC[C@H]4C[C@H](OC(=O)OCCN(C)C(=O)C(C)C)CC[C@]4(C)[C@H]3CC[C@]12C = 4.82
2. CC(=O)[C@H]1CC[C@H]2[C@@H]3CC[C@H]4C[C@H](OC(=O)CC5CCCC5)CC[C@]4(C)[C@H]3CC[C@]12C = 5
3. CC(=O)[C@H]1CC[C@H]2[C@@H]3CC[C@H]4C[C@H](OC(=O)CCCOC(=O)C(C)C)CC[C@]4(C)[C@H]3CC[C@]12C = 2.33
4. CC(=O)[C@H]1CC[C@H]2[C@@H]3CC[C@H]4C[C@H](OC(=O)OCc5oc(=O)oc5C)CC[C@]4(C)[C@H]3CC[C@]12C = 0.667
5. CC(=O)OCCCCC(=O)O[C@@H]1CC[C@@]2(C)[C@@H](CC[C@@H]3[C@@H]2CC[C@]2(C)[C@@H](C(C)=O)CC[C@@H]32)C1 = 1.78
6. CC(=O)OCCCC(C)C(=O)O[C@@H]1CC[C@@]2(C)[C@@H](CC[C@@H]3[C@@H]2CC[C@]2(C)[C@@H](C(C)=O)CC[C@@H]32)C1 (stereo not given in full) = 2.42

Exercise: Look up half-life at 1 µM: CC(=O)[C@H]1CC[C@H]2[C@@H]3CC[C@H]4C[C@H](OC(=O)N(C)CCOC(=O)C(C)C)CC[C@]4(C)[C@H]3CC[C@]12C
Solution: 2.93

Exercise: Please give the measured half-life at 1 µM for this compound: CC(=O)[C@H]1CC[C@H]2[C@@H]3CC[C@H]4C[C@H](OC(=O)OCCOC(=O)C(C)C)CC[C@]4(C)[C@H]3CC[C@]12C
Solution: 1.5

meta.source: ChEMBL document CHEMBL5247667
